Test system: Papaver rhoeas
Test: Postemergence herbicidal activity in cereal crops
Format: in vivo
Settings: Papaver rhoeas, post-emergence, 480 h, post-emergent, 70 g ai/ha, after 20-22 days; read-out: % Control PAPRH
observed.property: pest or weed control at 70 g/ha (%)

{"compound": "COc1cc(-c2cc(N)c(Cl)c(C(=O)O)n2)c(F)cc1Cl [Compound 101]", "observed.property": "pest or weed control at 70 g/ha", "assay.value": 100}
{"compound": "COC(=O)c1nc(-c2cc(OC)c(Cl)cc2F)cc(N)c1Cl [Compound 43]", "observed.property": "pest or weed control at 70 g/ha", "assay.value": 85}
{"compound": "COC(=O)c1nc(-c2cc(N(C)C)c(Cl)cc2F)cc(N)c1Cl [Compound 26]", "observed.property": "pest or weed control at 70 g/ha", "assay.value": 95}
{"compound": "COC(=O)c1nc(-c2cc(OC)c(F)cc2F)cc(N)c1Cl [Compound 73]", "observed.property": "pest or weed control at 70 g/ha", "assay.value": 95}
{"compound": "COC(=O)c1nc(-c2c(F)cc(Cl)c(N(C)C)c2F)cc(N)c1Cl [Compound 50]", "observed.property": "pest or weed control at 70 g/ha", "assay.value": 95}

----------
System: Echinochloa crus-galli
Assay: Herbicidal activity in transplanted paddy rice
Assay type: in vivo
Conditions: Echinochloa crus-galli, 504 h; paddy water application, 70 g ai/ha, after 3 weeks; read-out: % Control ECHCG
Label key: T means pest or weed control at 70 g/ha under 50%; F means pest or weed control at 70 g/ha of 50% or more.

{"compound": "COc1c(Cl)ccc(-c2cc(N)c(Cl)c(C(=O)O)n2)c1Cl [Compound 103]", "class": "T"}
{"compound": "CC(F)c1c(Cl)ccc(-c2cc(N)cc(C(=O)O)n2)c1Cl (centres unmarked) [Compound 125]", "class": "F"}
{"compound": "COC(=O)c1nc(-c2ccc(Br)c(OC)c2Cl)cc(N)c1Cl [Compound 52]", "class": "F"}
{"compound": "CCCCOC(=O)c1nc(-c2c(F)cc(Cl)c(OC)c2F)cc(N)c1Cl [Compound 88]", "class": "F"}
{"compound": "CCOc1c(Cl)ccc(-c2cc(N)c(Cl)c(C(=O)OC)n2)c1Cl [Compound 7]", "class": "F"}
{"compound": "COC(=O)c1nc(-c2ccc(F)c(OC)c2F)cc(N)c1Cl [Compound 70]", "class": "T"}
{"compound": "CCOC(=O)c1nc(-c2ccc(Cl)c(OC)c2F)cc(N)c1Cl [Compound 86]", "class": "T"}
{"compound": "CCCCOC(=O)c1nc(-c2ccc(Cl)c(OC)c2Cl)cc(N)c1Cl [Compound 89]", "class": "F"}
{"compound": "COC(=O)c1nc(-c2ccc(Cl)c(CF)c2F)cc(N)c1Cl [Compound 5]", "class": "T"}

----------
System: velvetleaf (Abutilon theophrasti)
Test: Preemergence herbicidal activity
Type: in vivo
Details: pre-emergent, 140 g ai/ha, after 20-22 days
Below, each entry is listed alongside its reported % Control ABUTH.

{"molecule": "CN(C)c1c(Cl)ccc(-c2cc(N)c(Cl)c(C(=O)O)n2)c1F [Compound 112]", "system.under.test": "velvetleaf (Abutilon theophrasti)", "% Control ABUTH": "100%"}
{"molecule": "Nc1cc(-c2ccc(F)c(F)c2F)nc(C(=O)O)c1Cl [Compound 131]", "system.under.test": "velvetleaf (Abutilon theophrasti)", "% Control ABUTH": "90%"}
{"molecule": "CN(C)c1cc(-c2cc(N)c(Cl)c(C(=O)O)n2)c(F)cc1Cl [Compound 111]", "system.under.test": "velvetleaf (Abutilon theophrasti)", "% Control ABUTH": "35%"}
{"molecule": "COC(=O)c1nc(-c2ccc(Cl)c(C(C)F)c2Cl)cc(N)c1Cl (centres unmarked) [Compound 63]", "system.under.test": "velvetleaf (Abutilon theophrasti)", "% Control ABUTH": "100%"}
{"molecule": "COC(=O)c1nc(-c2ccc(Cl)c(SC)c2F)cc(N)c1Cl [Compound 1]", "system.under.test": "velvetleaf (Abutilon theophrasti)", "% Control ABUTH": "80%"}
